This collection of values is drawn from patent US20220062240A1.

Target: CLK3 (Homo sapiens, UniProt P49761)
Sequence (P49761 whole entry): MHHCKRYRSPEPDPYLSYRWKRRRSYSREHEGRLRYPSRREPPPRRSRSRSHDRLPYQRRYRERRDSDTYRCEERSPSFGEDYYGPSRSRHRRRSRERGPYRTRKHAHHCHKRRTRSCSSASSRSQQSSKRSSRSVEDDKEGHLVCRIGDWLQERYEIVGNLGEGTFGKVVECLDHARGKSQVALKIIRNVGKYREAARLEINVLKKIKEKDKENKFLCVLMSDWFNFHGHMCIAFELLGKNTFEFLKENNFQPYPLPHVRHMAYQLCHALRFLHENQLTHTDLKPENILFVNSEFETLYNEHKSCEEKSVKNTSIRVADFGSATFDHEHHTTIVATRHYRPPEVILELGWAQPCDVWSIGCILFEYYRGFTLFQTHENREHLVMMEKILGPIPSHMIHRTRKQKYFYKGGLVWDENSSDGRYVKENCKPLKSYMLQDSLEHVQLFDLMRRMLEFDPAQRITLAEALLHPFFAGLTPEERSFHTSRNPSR
Assay: CLK3 kinase activity assay (Z-lyte, Ser/Thr 18 peptide)
pEC50: −log10 of the molar value.
Readout: pEC50

Recorded results for 2 compounds are shown here.
Prompt: Consider the compound shown here: Cn1cncc1-c1ccc2cnc(NC(=O)c3ccc4c(c3)CNC4)cc2c1 [Compound 15] What is its recorded pEC50?
Response: 7.52

Prompt: I'd like to know its pEC50. The compound in question is [2H]c1c([2H])c([2H])c(/C=C/C(=O)Nc2cc3cc(-c4cncn4C)ccc3cn2)c([2H])c1[2H] [Compound 81]
Response: 7.81

(A) CN(C)C1CN(c2cc(C(=O)Nc3cc4cc(-c5cnn(C)c5)ccc4cn3)ccn2)C1 [Compound 70]
(B) Cc1nnc(-c2ccc3cnc(NC(=O)c4ccnc(SC5CCN(C)CC5)c4)cc3c2)s1 [Compound 19]
Prompt: Hi, I'm comparing two records. Which one has the lower pEC50, A or B ? Please identify the chosen entry by its label.
Response: A
(A: 7.61, B: 7.85)
